Source: patent US8088941B2

Target: recombinant rabbit GSK-3β (Oryctolagus cuniculus)
Assay: In vitro GSK-3 inhibition assay with p9CREB peptide substrate
Type: biochemical
Details: p9CREB peptide substrate, FIGS. 7a-b, most active compounds
Experimental: In vitro inhibition assays: Purified recombinant rabbit GSK-3β (Eldar-Finkelman et al., 1996) was incubated with peptide substrate PGS-1 ([…](p)EDEEE) (SEQ ID NO:1) or peptide substrate p9CREB (SEQ ID NO:2) and with phenyl phosphate, pyridoxal phosphate (P-5-P), GSC-1, GSC-2, GSC-3, GSC-4, GSC-5, GSC-6, GSC-7 or GSC-21 (structural formulas are depicted in FIG. 3), at indicated concentrations. The reaction mixture included Tris 50 mM (pH=7.3), 10 mM MgAc, ^32P[γ-ATP] […]
parameterMeasured: IC50 (µM)

{"molecule": "N=C(N)Nc1cccc(COP(=O)(O)O)c1 [GSC-4, 3-guanidinobenzyl phosphate]", "val": 500}

----------
Molecular target: recombinant rabbit GSK-3β (Oryctolagus cuniculus, UniProt G1T8E2)
Sequence (G1T8E2 1-432): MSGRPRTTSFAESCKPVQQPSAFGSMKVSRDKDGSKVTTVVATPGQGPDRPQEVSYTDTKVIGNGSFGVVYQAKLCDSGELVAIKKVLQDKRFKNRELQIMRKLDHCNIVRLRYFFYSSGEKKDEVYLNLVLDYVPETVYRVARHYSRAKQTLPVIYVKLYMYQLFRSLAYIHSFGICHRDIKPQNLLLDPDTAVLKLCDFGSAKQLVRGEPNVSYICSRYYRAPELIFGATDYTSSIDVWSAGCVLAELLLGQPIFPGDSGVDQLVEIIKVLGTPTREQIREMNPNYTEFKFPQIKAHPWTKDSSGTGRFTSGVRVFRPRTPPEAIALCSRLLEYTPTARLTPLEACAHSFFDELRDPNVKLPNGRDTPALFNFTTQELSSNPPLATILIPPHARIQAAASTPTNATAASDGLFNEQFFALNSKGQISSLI
Experiment: In vitro GSK-3 inhibition assay with p9CREB peptide substrate
Assay type: biochemical
pIC50: −log10 of the molar value.
parameterMeasured: pIC50

{"molecule": "N=C(N)Nc1cc(COP(=O)(O)O)cc(NC(=N)N)c1 [GSC-7, 3,5-bisguanidino benzyl phosphate]", "parameterMeasured": "pIC50", "val": 3.30}

----------
Biological target: recombinant rabbit GSK-3β (Oryctolagus cuniculus, UniProt G1T8E2)
Experiment: In vitro GSK-3 inhibition assay with p9CREB peptide substrate
Type: biochemical
Conditions: MP molecules, p9CREB peptide substrate, FIG. 19
Protocol: In vitro inhibition assays: Purified recombinant rabbit GSK-3β (Eldar-Finkelman et al., 1996) was incubated with peptide substrate PGS-1 ([…](p)EDEEE) (SEQ ID NO:1) or peptide substrate p9CREB (SEQ ID NO:2) and with phenyl phosphate, pyridoxal phosphate (P-5-P), GSC-1, GSC-2, GSC-3, GSC-4, GSC-5, GSC-6, GSC-7 or GSC-21 (structural formulas are depicted in FIG. 3), at indicated concentrations. The reaction mixture included Tris 50 mM (pH=7.3), 10 mM MgAc, ^32P[γ-ATP] […]
Where a name gives a salt, the structure may show the parent alone.
parameterMeasured: IC50

{"compound": "N=C(N)Nc1ccc(-c2cn(-c3cccc(COP(=O)(O)O)c3)nn2)cc1 [MP-4, hydrochloride]", "measuredTarget": "recombinant rabbit GSK-3β (Oryctolagus cuniculus, UniProt G1T8E2)", "parameterMeasured": "IC50", "val": "~1 mM"}
{"compound": "N=C(N)Nc1cccc(-c2cn(-c3cccc(COP(=O)(O)O)c3)nn2)c1 [MP-1, hydrochloride]", "measuredTarget": "recombinant rabbit GSK-3β (Oryctolagus cuniculus, UniProt G1T8E2)", "parameterMeasured": "IC50", "val": "~1 mM"}
